MEASUREMENT PROTOCOL: […] bioavailability in Sprague-Dawley rat at 30 mg/kg, ip measured for 24 hrs by LC-MS/MS analysis
Format: ADME, organism-based
SETTINGS: in vivo
MEASURE: bioavailability (%)
Numbers only, in %.

bioavailability reported for this molecule COc1nc(OCc2cccc(-c3ccccc3)c2C)ccc1CNCCNC(=O)CCCCCCCCNC(=O)COc1ccc(C2CCC(=O)NC2=O)cc1 (stereo unspecified) : 71.2

###

MEASUREMENT PROTOCOL: Clearance in Sprague-Dawley rat at 3 mg/kg, iv measured for 24 hrs by LC-MS/MS analysis
Type: ADME, organism-based
SETTINGS: in vivo
MEASURE: clearance (mL/min/kg)
One number for each entry, in mL/min/kg.

The value of clearance measured for the compound COc1nc(OCc2cccc(-c3ccccc3)c2C)ccc1CNCCNC(=O)CCCCCCCCNC(=O)COc1ccc(C2CCC(=O)NC2=O)cc1 (stereo unspecified) turned out to be 471

###

TARGET SYSTEM: Protein cereblon (Mus musculus, UniProt Q8C7D2)
Sequence (Q8C7D2 whole entry): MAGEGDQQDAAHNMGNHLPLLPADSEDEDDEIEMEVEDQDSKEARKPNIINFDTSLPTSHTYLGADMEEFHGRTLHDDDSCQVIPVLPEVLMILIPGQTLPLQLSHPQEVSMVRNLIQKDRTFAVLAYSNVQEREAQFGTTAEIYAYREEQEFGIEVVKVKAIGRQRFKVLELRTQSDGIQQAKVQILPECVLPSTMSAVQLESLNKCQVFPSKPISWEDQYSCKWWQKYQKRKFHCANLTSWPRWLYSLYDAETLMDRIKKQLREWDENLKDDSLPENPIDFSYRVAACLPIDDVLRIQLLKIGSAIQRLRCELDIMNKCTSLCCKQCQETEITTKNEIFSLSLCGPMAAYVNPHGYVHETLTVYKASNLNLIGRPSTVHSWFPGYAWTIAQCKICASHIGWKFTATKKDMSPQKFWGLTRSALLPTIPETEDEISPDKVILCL
MEASURE: Kd

According to the records, this compound COc1nc(OCc2cccc(-c3ccccc3)c2C)ccc1CNCCNC(=O)CCCCCCCCNC(=O)COc1ccc(C2CCC(=O)NC2=O)cc1 (stereo unspecified) displays Kd of 132 µM
